B1: Hairpin Ribozyme (parent)
chain: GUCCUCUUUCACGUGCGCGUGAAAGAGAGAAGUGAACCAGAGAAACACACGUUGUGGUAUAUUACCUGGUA

# Variants of: B1
# PROTOCOL: self-cleavage, relative activity (ratio to wild type); higher = more cleavage; co-transcriptional
Kindly supply the reported self-cleavage values for the records listed here.
One number for each entry.

Consider the reported self-cleavage for these variants:
[
  {
    "RECORD_SEQUENCE": "GUCCUCUUUUACGUGCGCGUGAAAGAGAGAAGUGAACCAGAGAACCACACGUUGUGGUAUAUUACCUGGUA",
    "MEASUREMENT_TYPE": "self-cleavage",
    "TEST_VALUE": 0.159
  },
  {
    "RECORD_SEQUENCE": "GUCCUCUUUCACGUGCGCGUGAAAGAGAGAAGUGAAUCAGAGAAACAAACGUUGUGGUAUAUUACCUGGUA",
    "MEASUREMENT_TYPE": "self-cleavage",
    "TEST_VALUE": 0.12
  },
  {
    "RECORD_SEQUENCE": "GUCCUCUUUCACGUGCGCGUAAAAGAGAGAAGUGAACCAGAGAAACACACGUUCUGGUAUAUUACCUGGUA",
    "MEASUREMENT_TYPE": "self-cleavage",
    "TEST_VALUE": 0.293
  },
  {
    "RECORD_SEQUENCE": "GUCCUCUUUCACGUGCGCGUGAAAGAGAGAAGGAAACCAGAGAAACACACGUUGUGGUAUAUUACCUGGUA",
    "MEASUREMENT_TYPE": "self-cleavage",
    "TEST_VALUE": 0.317
  },
  {
    "RECORD_SEQUENCE": "GUCUUCUUUCACGUGCGCGUGAAAGAGAGAAGUGAACCCGAGAAACACACGUUGUGGUAUAUUACCUGGUA",
    "MEASUREMENT_TYPE": "self-cleavage",
    "TEST_VALUE": 0.251
  },
  {
    "RECORD_SEQUENCE": "GUCCUCUUUCACGUGCGCGUGAAAGAGAGAAGUGAACGAGAGUAACACACGUUGUGGUAUAUUACCUGGUA",
    "MEASUREMENT_TYPE": "self-cleavage",
    "TEST_VALUE": 0.154
  },
  {
    "RECORD_SEQUENCE": "GUCCUCUUUCACGUGCGCGUGAAAAAGAGAAGUGAACCCGAGAAACACACGUUGUGGUAUAUUACCUGGUA",
    "MEASUREMENT_TYPE": "self-cleavage",
    "TEST_VALUE": 0.374
  },
  {
    "RECORD_SEQUENCE": "GUCCUCUUUCACGUGCGCGUGAAAAAGAGAAGUGAACCAGAGAAAAACACGUUGUGGUAUAUUACCUGGUA",
    "MEASUREMENT_TYPE": "self-cleavage",
    "TEST_VALUE": 0.105
  },
  {
    "RECORD_SEQUENCE": "GUCCUCUUUCACGUGCGCGUUAAAGAGAGAGGUGAACCAGAGAAACACACGUUGUGGUAUAUUACCUGGUA",
    "MEASUREMENT_TYPE": "self-cleavage",
    "TEST_VALUE": 0.325
  },
  {
    "RECORD_SEQUENCE": "GUACUCUUUCACGUGCGCGUGGAAGAGAGAAGUGAACCAGAGAAACACACGUUGUGGUAUAUUACCUGGUA",
    "MEASUREMENT_TYPE": "self-cleavage",
    "TEST_VALUE": 0.706
  }
]

Each variant below has a recorded value; state its self-cleavage.
1. GUCCUCUUUCACGUGCGCGUGAAAGAGAGAAGUGAACAAGAGAAACAUACGUUGUGGUAUAUUACCUGGUA
2. UUCCUCUUUCACGUGCGCGUGAAAGAGAGAAGUGAACCAGAGAAACACACGUUGUGGUAUAUUACAUGGUA
3. GUCCUCUUUCACGUGCGCCUGAAAGAGAGAAGUGAACCAGAGAAACACACGUUGUGGUAAAUUACCUGGUA
4. GUCCUCUUUCUCGUGCGCGUGAAAGAGAGAAGUGAACCAGAGAAACACACGUUGUGGUAUAUUGCCUGGUA
5. GUCCUCUUUCACGUGCGCGUGAAAGAGGGACGUGAACCAGAGAAACACACGUUGUGGUAUAUUACCUGGUA
6. GUCCUCUUUCACGUGCGCGUGCAAGAGAGAAGUGAACCAGACAAACACACGUUGUGGUAUAUUACCUGGUA
7. GUCCUCUUUCACGUGCGCGUGAAAGACAGAAGUGAACCAGAGAAACACUCGUUGUGGUAUAUUACCUGGUA
8. GUCCUCUUUUACGUGCGCGUGAAAGAGAGAAGUGAACCAGAGAAACACACGUUGUGGUAUAUUACCUGGUC

Result:
1. 0.135
2. 0.242
3. 0.9
4. 0.588
5. 0.113
6. 0.291
7. 0.129
8. 1.23

# batch: return self-cleavage for each of the 2 variants below
1. GUCCUCUUUCACGUGCGCGUGAAAGAGAGAAGUGAACCUGAUAAACACACGUUGUGGUAUAUUACCUGGUA
2. GUCCUAUUUCACGUGCGCGUGAAAGAGAGAAGUGAACCAGAGAAAAACACGUUGUGGUAUAUUACCUGGUA

Result:
1: 0.172; 2: 0.119

Hey, can you go through the list below and give me self-cleavage for every item?
1. GUCCUCUUUCACGUGCGCGUGGAAGAGAGAAGUGAACCAGAGAAACACACGUUGUGGUAUAUUACCUGGUC
2. GUCCUCUUUCACGAGCGCGUGAAAGAGAGAAGUGCACCAGAGAAACACACGUUGUGGUAUAUUACCUGGUA
3. GUUCUCUUUCACGUGCGCGUGAAAGAGAGAAGUGAACCAGAGAAACACACGUUGUGGUACAUUACCUGGUA
4. GUCCUCUUUCACGUGCGCGUGAAAGAGAGAAGUGCACCAGAGAAACGCACGUUGUGGUAUAUUACCUGGUA
5. GUCCUCUUUCACGUGCGCGUGAAAGAGAGAACUGAACCAGAGAAACACACGUUGUGGUAUAUUACCUGCUA
6. GGCCUCUUUCACGUGCGCGUGAAAGAGAGAAGUGAACCGGAGAAACACACGUUGUGGUAUAUUACCUGGUA
7. GUCCUCUUUCACGUGCGCGUGAAAGAGAGAAGUGCACCAGAGAAACACACGUUGUGGUAUUUUACCUGGUA
8. GUCGUCUUUCACGUGCGCGUGAAAGAGAGAAGUGAACCAGAGAAACACACGUGGUGGUAUAUUACCUGGUA

Result:
1. 1.28
2. 0.998
3. 0.705
4. 0.195
5. 0.115
6. 0.179
7. 0.125
8. 0.117
